The measured values listed here are drawn from ChEMBL document CHEMBL1961873.

inhibition overview
targetOfAssay: Protein kinase C alpha type (Homo sapiens)
reportedConditions: at 0.1 µM
reportedMetric: inhibition (%)

>  <itemSmiles>
Nc1nc(-c2ccc(F)cc2)c(-c2ccc3ncccc3n2)s1

>  <targetOfAssay>
Protein kinase C alpha type (Homo sapiens)

>  <reportedMetric>
inhibition

>  <unitOfMeasure>
%

>  <valueObserved>
1.13

$$$$
>  <itemSmiles>
Nc1ncc(-c2cccc(S(N)(=O)=O)c2)c2scc(-c3ccc(F)c(Cl)c3)c12

>  <targetOfAssay>
Protein kinase C alpha type (Homo sapiens)

>  <reportedMetric>
inhibition

>  <unitOfMeasure>
%

>  <valueObserved>
-0.67

$$$$
>  <itemSmiles>
Fc1ccc(-c2cc(-c3c[nH]nc3-c3ccccn3)ccn2)cc1

>  <targetOfAssay>
Protein kinase C alpha type (Homo sapiens)

>  <reportedMetric>
inhibition

>  <unitOfMeasure>
%

>  <valueObserved>
0.45

$$$$
>  <itemSmiles>
CS(=O)(=O)CCNCc1ccc(-c2ccc3ncnc(Nc4ccc(OCc5ccccc5)c(C(F)(F)F)c4)c3c2)o1

>  <targetOfAssay>
Protein kinase C alpha type (Homo sapiens);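 also: each value is the mean percent inhibition of PKC-alpha kinase activity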

>  <reportedMetric>
inhibition

>  <unitOfMeasure>
%

>  <valueObserved>
0.59

$$$$
